Data credit: the RNAGym collection of RNA variant scans (doi:10.1093/nar/gkz1192)

# key: entry, value: self-cleavage
B1: CPEB3 Ribozyme (parent)
chain: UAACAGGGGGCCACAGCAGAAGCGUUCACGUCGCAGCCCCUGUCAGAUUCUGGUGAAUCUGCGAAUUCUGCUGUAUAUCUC

Variants of: B1
Test: self-cleavage, relative activity (ratio to wild type); higher = more cleavage; in vitro, sequencing

Example results:
>>> result("U26A U54G")
0.53
>>> result("A28G G46A")
0.09
>>> result("U67G U72C")
0.14
>>> result("A3G U54G")
0.82
>>> result("A5G G70C")
0.25
>>> result("C29U U51G")
0.8
>>> result("G24U C44A")
0.18
>>> result("G10A U41G")
0.38

Retrieve self-cleavage measured for U25G A28U and print it.
0.31

Consider the variant C29A A35G . State its measured self-cleavage.
1.11

Answer with the recorded self-cleavage of C11U A75G only.
0.32

Provide self-cleavage value for the following variant: U58C C62G
0.27

Provide one value: measured self-cleavage of U60C G63U
0.58
